# melting point per entry

-- ask I am curious: what melting point value has been reported for O=Cc1ccc2c(c1)CCC(C(=O)O)C2 (stereo not given) ?
-- reply 205 to 212 °C

-- ask I am curious: what melting point value has been reported for Cc1ccc(-n2nccc2-c2nn(-c3cccc(C(F)(F)F)c3)ccc2=O)cc1 ?
-- reply 164 to 165 °C

-- ask I am curious: what melting point value has been reported for CCN(CC)C(=O)n1ccc(S(=O)(=O)c2cc(Cl)ccc2C)n1 ?
-- reply 96 to 97 °C

-- ask I am curious: what melting point value has been reported for [N-]=[N+]=C1C(=O)Nc2c1cccc2C(F)(F)F ?
-- reply 173 to 175 °C

-- ask I am curious: what melting point value has been reported for CCOC(=O)C(Cl)=NNc1ccccc1Br ?
-- reply 106 °C

-- ask I am curious: what melting point value has been reported for Cc1ccc(Cl)cc1NC(=S)n1c(C)cc2ccccc21 ?
-- reply 121 to 122 °C

-- ask I am curious: what melting point value has been reported for Cc1nc(N2CCN(Cc3ccccc3C(F)(F)F)C2=O)sc1C(=O)NCc1ccccc1 ?
-- reply 138 to 140 °C
